System: Candida albicans
experimental-context: Concentration 32 ug.mL-1; ASSAY_TEST Inhibition of Fungal Growth; detection method Absorption (OD530)
Description: Antifungal activity against Candida albicans ATCC 90028 (CO-ADD:FG_001); MIC in YNB media using NBS plates, by OD630
Results with a measured potency or affinity are listed apart.
Item-by-item account of Inhibition

compound | scale-unit | Inhibition
O=C(Cn1nc2c(Oc3ccccc3)nccn2c1=O)Nc1cc(F)ccc1F | % | -0.69
O=C(CSc1nnc2c3cc(-c4ccc(F)cc4)nn3ccn12)NCc1ccccc1Cl | % | 14.03
Cc1ccc(NC(=O)Cn2c(=O)c3nnc(C(C)C)n3c3ccccc32)cc1C | % | 4.79
COc1cccc(-n2ccn3c(SCC(=O)Nc4ccccc4F)nnc3c2=O)c1 | % | 2.83
COc1cccc(Oc2nccn3c(=O)n(CC(=O)Nc4ccc(OC)c(OC)c4)nc23)c1 | % | 1.42
COc1ccc(NC(=O)Cn2nc3ccc(SCc4ccc(Cl)cc4)nn3c2=O)cc1OC | % | 32.62
COc1ccc(NC(=O)Cn2nc3ccc(SC(C)(C)C)nn3c2=O)cc1Cl | % | 3.69
CC(C)Cn1c(=O)c2sccc2n2c(=O)n(Cc3ccc(Cl)cc3)nc12 | % | -1.9
CCc1ccc(NC(=O)CSc2nnc3c(=O)n(-c4ccccc4)ccn23)cc1 | % | 2.07
COc1cc(OC)c(NC(=O)Cn2nc3ccc(-c4ccc(C)c(C)c4)nn3c2=O)cc1Cl | % | 1.07
Cc1nnc2ccc(S(=O)(=O)N(Cc3ccccc3F)c3ccc(F)cc3)cn12 | % | 1.21
CCCCOc1ccc(-c2cc3c4nnc(SCC(=O)NCc5ccccc5)n4ccn3n2)cc1 | % | 3.39
Cc1cccc(C)c1NC(=O)Cn1nc2c3cc(-c4ccc(Cl)cc4)nn3ccn2c1=O | % | -0.5
O=C(CCc1nnc2c(N3CCCCC3)nc3ccccc3n12)NCc1ccc(F)cc1 | % | 8.78
Cc1ccc(Oc2nc3ccccc3n3c(=O)n(CC(=O)Nc4ccccc4C(F)(F)F)nc23)cc1 | % | 1.1
Cc1cc2nn(CC(=O)Nc3ccc(F)cc3Cl)c(=O)n2c(Nc2ccccc2C)n1 | % | 30.65
Cc1ccc(-c2ccc3nn(Cc4nc(-c5ccc(OC(F)(F)F)cc5)no4)c(=O)n3n2)cc1 | % | 49.09
CC(C)c1ccc(N(Cc2ccccc2F)S(=O)(=O)c2cccn3cnnc23)cc1 | % | -0.83
O=C(CCc1nnc2c(N3CCCCC3)nc3ccccc3n12)NCCc1ccc(Cl)cc1 | % | 2.39
CC(C)c1nnc2c(=O)n(CC(=O)Nc3ccc(F)cc3)c3ccccc3n12 | % | 1.82
COC(=O)c1ccc(Cn2nc3ccc(S(=O)(=O)N4CCCCCC4)cn3c2=O)o1 | % | -1.08
CCc1ccc(N(Cc2ccccc2C)S(=O)(=O)c2cccn3c(C)nnc23)cc1 | % | 5.07
Cc1ccc(NC(=O)Cn2nc3ccc(-c4ccc(Cl)cc4)nn3c2=O)cc1 | % | 1.61
COc1cccc(-n2ccn3c(SCc4cccc(C(F)(F)F)c4)nnc3c2=O)c1 | % | 12.49
O=C(CSc1nnc2c(=O)n(-c3cccc(F)c3)ccn12)c1ccc(F)cc1 | % | 4
COc1cccc(Sc2nc3ccccc3n3c(=O)n(CC(=O)Nc4c(C)cc(C)cc4C)nc23)c1 | % | -0.39
CC(C)CCn1c(=O)c2ccc(C(=O)NC3CCCCC3)cc2n2c(=O)n(CC#N)nc12 | % | 4.75
CCCCN(CC)c1ccc2nnc(CCc3nc(-c4ccc(OCc5ccccc5)cc4)no3)n2n1 | % | 5.5
Cc1ccc(NC(=O)Cn2c(=O)c3nnc(C(C)C)n3c3ccccc32)cc1 | % | 1.19
COc1cccc(-n2ccn3c(SCc4ccccc4C)nnc3c2=O)c1 | % | 2.6
COc1ccc(NC(=O)C(C)Sc2nnc3c(=O)n(-c4cccc(OC)c4)ccn23)cc1 (centres undefined) | % | -0.02
CCCCOc1ccc(-c2cc3c4nnc(SCC(=O)Nc5ccc(C)c(C)c5)n4ccn3n2)cc1 | % | -1.19
Cc1ccc(NC(=O)Cn2nc3c4cc(-c5ccc(C)c(C)c5)nn4ccn3c2=O)cc1 | % | 8.44
CCCN(C)c1nccn2c(=O)n(CC(=O)Nc3ccc(Br)cc3)nc12 | % | 3.8
Cc1cc(C)c(NC(=O)Cn2nc3c4cc(-c5ccc(F)cc5)nn4ccn3c2=O)c(C)c1 | % | 18.72
O=c1n(Cc2cccc(C(F)(F)F)c2)nc2c(S(=O)(=O)N3CCCCC3)cccn12 | % | 1.28
COc1cccc(-c2nc(CSc3nc4ccccc4n4c(C(C)C)nnc34)c(C)o2)c1OC | % | -0.24
Cc1ccccc1Oc1nc2ccccc2n2c(=O)n(CC(=O)NCc3ccc4c(c3)OCO4)nc12 | % | 19.82
Cc1ccc(NC(=O)Cn2nc3c4cc(-c5ccc(C)c(C)c5)nn4ccn3c2=O)cc1C | % | 4.1
